# credit: paper doi:10.1101/2024.02.27.582382

System tested: MelBSt (melibiose permease of Salmonella enterica serovar Typhimurium) (Salmonella enterica)
Construct: full length, C-terminal His10 tag (plasmid pK95 delta-AH/MelBSt/CHis10), expressed in E. coli DW2; modelled residues 2-454 or 2-456
Sequence (P30878 whole entry, the tested form may be a part): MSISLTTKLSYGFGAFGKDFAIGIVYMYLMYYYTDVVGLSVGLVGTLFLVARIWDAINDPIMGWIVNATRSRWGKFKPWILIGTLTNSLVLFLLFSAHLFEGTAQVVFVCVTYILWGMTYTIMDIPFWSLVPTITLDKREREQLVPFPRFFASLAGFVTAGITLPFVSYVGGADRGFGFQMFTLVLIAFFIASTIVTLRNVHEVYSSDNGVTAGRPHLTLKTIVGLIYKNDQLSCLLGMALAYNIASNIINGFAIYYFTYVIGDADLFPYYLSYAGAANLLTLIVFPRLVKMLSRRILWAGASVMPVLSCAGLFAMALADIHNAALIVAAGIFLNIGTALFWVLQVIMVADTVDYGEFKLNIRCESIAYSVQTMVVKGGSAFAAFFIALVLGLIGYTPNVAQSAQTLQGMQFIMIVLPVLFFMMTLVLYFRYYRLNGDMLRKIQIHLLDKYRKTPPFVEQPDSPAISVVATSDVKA
Assay notes: ITC
Condition summary: pH 8.5, 25 °C, Na+-free, 20 mM Tris-HCl, 100 mM choline chloride, 0.035% UDM
pKd: −log10 of the molar value.
Recorded endpoint: pKd

>>> print(df.to_string())
                                   compound  recorded_endpoint  value_measured
0  OC[C@H]1O[C@H](OC[C@H]2OC(O)[C@H](O)[C@@H](O)[C@@H]2O)[C@H](O)[C@@H](O)[C@H]1O (stereo partly shown) [melibiose]                pKd            2.07
